# Target under test: T1, human TMEM106B (human, UniProt Q9NUM4 2-274)
# T1 construct: Full-length, on transiently transfected HEK293 cells, or natively expressed on HeLa, U251 and A549 cells; also called huTMEM106B; huTMEM
# Assay explanation: FACS A549
Value kind: MFI
One number for each entry.

anti-TMEM106B antibody TM-13 (antibody, V domains shown) VH: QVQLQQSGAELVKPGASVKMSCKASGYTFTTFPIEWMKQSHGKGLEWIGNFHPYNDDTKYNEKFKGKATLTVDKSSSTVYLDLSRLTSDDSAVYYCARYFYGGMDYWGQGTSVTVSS VL: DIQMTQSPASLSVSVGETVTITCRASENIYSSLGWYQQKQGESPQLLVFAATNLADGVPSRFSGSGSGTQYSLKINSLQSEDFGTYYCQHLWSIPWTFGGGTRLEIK : 1260

Please turn your attention to the following entry.
Field request: MFI | item: anti-TMEM106B antibody TM-8 (antibody, V domains shown, mouse IgG from hybridoma) VH: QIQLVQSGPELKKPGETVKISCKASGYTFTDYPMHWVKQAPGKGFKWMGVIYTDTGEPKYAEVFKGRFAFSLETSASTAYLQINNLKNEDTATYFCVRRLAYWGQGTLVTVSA VL: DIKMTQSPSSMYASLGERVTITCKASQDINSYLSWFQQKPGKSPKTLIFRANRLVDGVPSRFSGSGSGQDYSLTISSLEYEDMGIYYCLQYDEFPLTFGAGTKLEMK
554

Entry source: patent US20230303681A1
